measured_on: type 1 ryanodine receptor (RyR1) (Oryctolagus cuniculus, UniProt P11716)
Sequence (P11716 whole entry): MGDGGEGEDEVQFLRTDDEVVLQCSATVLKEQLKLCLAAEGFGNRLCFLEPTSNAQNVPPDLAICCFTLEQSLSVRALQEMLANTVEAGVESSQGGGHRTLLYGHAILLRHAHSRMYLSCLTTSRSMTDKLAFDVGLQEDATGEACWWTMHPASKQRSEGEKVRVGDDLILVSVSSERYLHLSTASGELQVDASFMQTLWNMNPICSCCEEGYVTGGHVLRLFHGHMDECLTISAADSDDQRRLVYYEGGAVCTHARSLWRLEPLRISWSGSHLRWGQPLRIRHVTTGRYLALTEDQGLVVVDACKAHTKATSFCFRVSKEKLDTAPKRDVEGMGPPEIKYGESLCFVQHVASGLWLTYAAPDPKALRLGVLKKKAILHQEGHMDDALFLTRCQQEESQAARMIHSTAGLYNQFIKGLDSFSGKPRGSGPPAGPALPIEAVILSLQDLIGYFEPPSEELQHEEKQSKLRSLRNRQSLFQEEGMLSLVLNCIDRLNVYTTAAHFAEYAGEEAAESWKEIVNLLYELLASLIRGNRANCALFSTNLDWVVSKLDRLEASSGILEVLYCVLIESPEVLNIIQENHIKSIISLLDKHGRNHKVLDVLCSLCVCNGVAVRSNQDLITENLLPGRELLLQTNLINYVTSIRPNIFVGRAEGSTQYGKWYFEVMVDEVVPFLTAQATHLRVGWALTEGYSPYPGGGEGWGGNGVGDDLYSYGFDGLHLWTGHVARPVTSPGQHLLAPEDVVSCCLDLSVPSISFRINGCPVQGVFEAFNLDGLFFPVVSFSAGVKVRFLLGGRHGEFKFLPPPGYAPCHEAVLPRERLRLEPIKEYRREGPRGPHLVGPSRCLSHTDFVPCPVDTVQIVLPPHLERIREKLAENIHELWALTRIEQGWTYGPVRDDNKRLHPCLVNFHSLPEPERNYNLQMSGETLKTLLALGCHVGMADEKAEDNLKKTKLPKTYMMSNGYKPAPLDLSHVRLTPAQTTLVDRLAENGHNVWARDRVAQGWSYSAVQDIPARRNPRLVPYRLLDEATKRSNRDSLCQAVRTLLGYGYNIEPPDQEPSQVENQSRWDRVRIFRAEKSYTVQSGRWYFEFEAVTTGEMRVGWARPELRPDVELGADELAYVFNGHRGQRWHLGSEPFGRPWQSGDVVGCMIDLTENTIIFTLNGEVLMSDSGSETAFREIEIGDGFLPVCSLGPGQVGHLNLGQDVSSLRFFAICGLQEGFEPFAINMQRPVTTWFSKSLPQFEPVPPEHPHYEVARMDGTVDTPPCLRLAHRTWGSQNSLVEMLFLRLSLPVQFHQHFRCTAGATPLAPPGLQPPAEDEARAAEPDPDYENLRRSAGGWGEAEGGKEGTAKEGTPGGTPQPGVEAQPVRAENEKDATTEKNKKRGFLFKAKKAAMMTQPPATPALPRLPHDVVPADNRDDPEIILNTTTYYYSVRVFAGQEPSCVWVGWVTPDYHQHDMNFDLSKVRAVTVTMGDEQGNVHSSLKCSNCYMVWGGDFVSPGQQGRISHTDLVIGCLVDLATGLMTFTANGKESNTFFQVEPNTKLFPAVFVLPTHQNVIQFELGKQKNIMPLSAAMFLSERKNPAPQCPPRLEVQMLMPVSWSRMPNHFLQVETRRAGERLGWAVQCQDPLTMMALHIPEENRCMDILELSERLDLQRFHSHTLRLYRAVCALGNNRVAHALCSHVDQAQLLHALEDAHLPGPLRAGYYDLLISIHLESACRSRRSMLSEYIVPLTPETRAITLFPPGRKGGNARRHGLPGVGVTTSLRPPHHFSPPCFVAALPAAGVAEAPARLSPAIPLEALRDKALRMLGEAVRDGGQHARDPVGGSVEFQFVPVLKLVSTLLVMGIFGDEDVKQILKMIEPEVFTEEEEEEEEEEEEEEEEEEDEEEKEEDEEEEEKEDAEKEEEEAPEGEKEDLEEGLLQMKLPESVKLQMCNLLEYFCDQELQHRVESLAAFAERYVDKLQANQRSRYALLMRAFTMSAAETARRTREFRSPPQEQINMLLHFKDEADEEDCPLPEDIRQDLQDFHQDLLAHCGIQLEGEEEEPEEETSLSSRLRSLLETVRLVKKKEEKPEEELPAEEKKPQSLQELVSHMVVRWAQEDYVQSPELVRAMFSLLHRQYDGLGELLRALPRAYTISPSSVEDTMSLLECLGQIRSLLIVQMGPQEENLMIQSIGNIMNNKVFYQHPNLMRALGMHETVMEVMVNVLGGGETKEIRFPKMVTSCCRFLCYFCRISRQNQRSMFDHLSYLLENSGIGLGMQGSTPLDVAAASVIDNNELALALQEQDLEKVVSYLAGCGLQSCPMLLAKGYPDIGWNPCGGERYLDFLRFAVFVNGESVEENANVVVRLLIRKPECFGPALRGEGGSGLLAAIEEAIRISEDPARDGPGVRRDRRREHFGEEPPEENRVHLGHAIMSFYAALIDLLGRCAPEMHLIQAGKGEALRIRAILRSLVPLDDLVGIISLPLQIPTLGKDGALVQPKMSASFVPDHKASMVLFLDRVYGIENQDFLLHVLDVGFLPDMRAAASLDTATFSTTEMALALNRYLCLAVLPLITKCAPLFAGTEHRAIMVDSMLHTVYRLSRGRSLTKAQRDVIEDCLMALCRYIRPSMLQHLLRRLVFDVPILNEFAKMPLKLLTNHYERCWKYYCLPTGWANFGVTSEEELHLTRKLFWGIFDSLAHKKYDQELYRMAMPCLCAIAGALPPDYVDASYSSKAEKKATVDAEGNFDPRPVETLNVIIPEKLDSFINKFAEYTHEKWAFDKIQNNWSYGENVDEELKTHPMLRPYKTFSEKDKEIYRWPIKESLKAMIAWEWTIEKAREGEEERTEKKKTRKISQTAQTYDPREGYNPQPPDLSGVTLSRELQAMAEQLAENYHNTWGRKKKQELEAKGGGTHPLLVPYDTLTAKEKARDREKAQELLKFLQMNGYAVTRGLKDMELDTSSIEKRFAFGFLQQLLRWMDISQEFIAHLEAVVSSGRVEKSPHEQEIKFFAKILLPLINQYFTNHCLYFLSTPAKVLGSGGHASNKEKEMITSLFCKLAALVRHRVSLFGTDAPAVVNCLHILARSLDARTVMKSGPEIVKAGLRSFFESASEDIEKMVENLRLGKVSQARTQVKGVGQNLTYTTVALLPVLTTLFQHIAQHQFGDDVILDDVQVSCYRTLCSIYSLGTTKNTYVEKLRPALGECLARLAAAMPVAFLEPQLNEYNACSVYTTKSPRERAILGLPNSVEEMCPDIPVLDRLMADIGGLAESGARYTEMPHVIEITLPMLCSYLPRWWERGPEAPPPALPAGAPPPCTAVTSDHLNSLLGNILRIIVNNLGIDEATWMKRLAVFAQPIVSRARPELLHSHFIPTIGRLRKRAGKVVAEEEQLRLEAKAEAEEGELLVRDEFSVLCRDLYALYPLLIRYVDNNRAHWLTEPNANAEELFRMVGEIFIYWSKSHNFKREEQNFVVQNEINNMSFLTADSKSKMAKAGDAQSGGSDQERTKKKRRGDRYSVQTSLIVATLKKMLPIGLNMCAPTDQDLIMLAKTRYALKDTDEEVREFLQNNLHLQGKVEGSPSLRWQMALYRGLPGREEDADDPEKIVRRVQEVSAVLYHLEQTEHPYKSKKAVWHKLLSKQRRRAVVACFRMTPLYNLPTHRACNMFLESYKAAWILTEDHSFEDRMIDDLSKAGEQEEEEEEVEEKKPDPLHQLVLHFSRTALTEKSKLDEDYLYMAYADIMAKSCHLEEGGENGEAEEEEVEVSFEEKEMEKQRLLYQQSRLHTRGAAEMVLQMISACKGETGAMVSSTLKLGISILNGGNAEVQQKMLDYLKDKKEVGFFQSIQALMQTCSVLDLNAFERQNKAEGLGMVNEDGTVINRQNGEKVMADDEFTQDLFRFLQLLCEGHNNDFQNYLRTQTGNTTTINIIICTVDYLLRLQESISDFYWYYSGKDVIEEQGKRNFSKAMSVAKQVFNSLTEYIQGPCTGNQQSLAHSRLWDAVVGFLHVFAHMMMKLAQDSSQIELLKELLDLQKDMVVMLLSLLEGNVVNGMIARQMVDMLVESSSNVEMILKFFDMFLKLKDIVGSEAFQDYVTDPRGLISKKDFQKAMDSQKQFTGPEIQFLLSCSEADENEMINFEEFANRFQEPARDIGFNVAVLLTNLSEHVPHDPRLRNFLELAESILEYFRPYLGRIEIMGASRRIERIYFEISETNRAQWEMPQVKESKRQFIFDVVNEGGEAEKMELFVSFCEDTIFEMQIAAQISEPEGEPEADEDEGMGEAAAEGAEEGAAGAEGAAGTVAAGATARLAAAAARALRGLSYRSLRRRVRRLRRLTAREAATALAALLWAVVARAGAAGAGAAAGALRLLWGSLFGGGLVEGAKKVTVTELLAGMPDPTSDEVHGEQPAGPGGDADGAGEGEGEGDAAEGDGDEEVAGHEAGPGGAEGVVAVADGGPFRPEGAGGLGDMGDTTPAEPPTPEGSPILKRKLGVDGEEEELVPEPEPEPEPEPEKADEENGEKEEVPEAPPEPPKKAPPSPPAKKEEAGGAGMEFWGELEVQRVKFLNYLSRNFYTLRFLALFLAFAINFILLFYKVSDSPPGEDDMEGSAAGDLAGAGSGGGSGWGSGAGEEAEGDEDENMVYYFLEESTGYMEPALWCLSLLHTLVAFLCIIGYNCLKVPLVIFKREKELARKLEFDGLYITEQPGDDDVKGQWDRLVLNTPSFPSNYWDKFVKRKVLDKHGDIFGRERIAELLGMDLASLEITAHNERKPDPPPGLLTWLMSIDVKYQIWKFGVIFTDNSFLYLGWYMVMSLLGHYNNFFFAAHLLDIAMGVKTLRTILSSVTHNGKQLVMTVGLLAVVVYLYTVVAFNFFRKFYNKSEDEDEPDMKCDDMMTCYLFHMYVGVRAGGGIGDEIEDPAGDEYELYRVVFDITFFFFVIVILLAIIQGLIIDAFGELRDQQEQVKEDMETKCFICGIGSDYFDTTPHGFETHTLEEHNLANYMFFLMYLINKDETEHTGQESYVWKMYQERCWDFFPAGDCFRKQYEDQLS
test_protocol: intracellular calcium (Cal-520) assay in HEK […] cells with tetracycline-induced RyR1; chimeras and point mutants
Type: cell-based
Parameters: full-length rabbit RyR1; RyR1 Q3889-S4213 necessary and sufficient for the response
assay_readout: EC50 (µM)
Quick note: give the figure in µM, leave out the unit.

In: Reported EC50 for FC(F)OC(Cl)C(F)(F)F (stereo not shown) : what is it?
Out: 203

###

measured_on: type 1 ryanodine receptor (RyR1) (Oryctolagus cuniculus, UniProt P11716)
test_protocol: cell-based
Design: full-length rabbit RyR1; species or system HEK 293; fluorescent calcium indicator assay, peak Fmax/F0, tetracycline-induced RyR1 expression, 384-well plate
assay_readout: EC50

In: Which EC50 is reported with type 1 ryanodine receptor (RyR1) (Oryctolagus cuniculus, UniProt P11716) for this entry: Cc1ccc(O)cc1 [4-MP, 4-methylphenol] ?
Out: 31 µM

In: Similarly, CCc1ccc(O)cc1 [4-EP, 4-ethylphenol] ?
Out: 24 µM
